Molecular target: PI3Kα (Homo sapiens (Human))
Sequence (P42336 whole entry): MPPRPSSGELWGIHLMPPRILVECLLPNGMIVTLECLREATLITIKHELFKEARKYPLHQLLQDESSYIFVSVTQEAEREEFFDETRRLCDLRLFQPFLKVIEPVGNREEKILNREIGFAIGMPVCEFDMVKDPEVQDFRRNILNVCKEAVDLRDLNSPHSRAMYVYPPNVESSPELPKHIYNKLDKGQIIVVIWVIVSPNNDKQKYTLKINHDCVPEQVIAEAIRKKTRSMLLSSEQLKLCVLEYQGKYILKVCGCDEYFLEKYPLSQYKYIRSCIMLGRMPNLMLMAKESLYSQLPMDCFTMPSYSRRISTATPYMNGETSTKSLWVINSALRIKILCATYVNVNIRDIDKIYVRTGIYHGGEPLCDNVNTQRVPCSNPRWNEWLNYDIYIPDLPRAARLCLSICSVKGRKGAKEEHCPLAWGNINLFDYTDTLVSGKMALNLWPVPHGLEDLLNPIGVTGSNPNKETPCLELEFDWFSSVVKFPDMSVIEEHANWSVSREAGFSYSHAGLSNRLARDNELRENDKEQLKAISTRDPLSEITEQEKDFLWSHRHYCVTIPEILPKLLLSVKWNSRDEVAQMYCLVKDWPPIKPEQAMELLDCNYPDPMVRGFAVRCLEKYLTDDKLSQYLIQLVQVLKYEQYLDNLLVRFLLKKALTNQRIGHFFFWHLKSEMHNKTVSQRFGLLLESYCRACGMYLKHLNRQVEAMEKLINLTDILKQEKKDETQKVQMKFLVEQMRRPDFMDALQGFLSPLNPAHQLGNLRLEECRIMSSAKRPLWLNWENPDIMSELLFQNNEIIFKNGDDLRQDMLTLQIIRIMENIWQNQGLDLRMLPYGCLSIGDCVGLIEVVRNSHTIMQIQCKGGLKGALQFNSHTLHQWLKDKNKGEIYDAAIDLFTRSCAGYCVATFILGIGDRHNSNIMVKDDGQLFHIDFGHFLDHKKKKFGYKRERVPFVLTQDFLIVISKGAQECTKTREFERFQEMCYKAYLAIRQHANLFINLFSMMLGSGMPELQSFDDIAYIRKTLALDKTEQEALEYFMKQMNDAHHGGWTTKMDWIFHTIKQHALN
Sequence (P27986 whole entry partner): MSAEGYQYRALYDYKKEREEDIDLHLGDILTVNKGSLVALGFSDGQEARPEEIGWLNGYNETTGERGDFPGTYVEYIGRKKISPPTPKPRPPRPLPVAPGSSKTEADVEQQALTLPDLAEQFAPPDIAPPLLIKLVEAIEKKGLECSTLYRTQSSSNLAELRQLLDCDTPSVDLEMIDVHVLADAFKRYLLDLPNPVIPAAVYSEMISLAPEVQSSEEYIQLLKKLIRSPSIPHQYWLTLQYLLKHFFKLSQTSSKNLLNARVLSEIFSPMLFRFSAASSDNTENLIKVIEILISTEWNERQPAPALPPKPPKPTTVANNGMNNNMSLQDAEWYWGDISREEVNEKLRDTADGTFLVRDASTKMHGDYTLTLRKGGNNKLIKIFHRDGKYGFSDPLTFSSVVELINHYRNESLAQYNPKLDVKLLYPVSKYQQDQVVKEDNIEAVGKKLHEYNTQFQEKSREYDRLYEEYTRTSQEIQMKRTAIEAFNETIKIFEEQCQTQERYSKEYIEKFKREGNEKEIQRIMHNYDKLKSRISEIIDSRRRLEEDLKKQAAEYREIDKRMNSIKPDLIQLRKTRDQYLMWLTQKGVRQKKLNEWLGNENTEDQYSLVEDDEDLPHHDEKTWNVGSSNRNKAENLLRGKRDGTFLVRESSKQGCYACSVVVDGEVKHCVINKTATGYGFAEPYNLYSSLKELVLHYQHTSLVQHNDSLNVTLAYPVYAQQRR
Assay: Inhibition of PI3Kα (ADP-Glo kinase activity assay, ATP to ADP conversion)
Format: biochemical
Details: 25 μM PIP2:PS, 60 μM ATP, 30 min reaction, luminescence
Method: Quantification of ATP to ADP conversion as a measure of PI3Kα activity. […] The conversion of ATP to ADP by PI3Kα was measured as luminescence signal via Promega ADP-Glo kinase activity assay. […] Compounds were prepared at 100× final concentration as a 12-point, 1:3 serial-dilution in DMSO series, with DMSO control as 12th point. […] ATP to ADP conversion was measured in Luminescence Counts on DTX880 Plate Reader (Beckman Coulter). […]
Where a name gives a salt, the structure may show the parent alone.
metric.name: PI3Ka IC50 (µM)

> print(dat)
                                   molecule  endpoint.result
1  Nc1ncc(-c2cc(S(=O)(=O)c3ccccc3)cc(N3CC4CCC(C3)O4)n2)cn1 [Compound 151]             0.83
2  N#Cc1ccc(S(=O)(=O)c2cc(-c3cnc(N)cc3C(F)(F)F)cc(N3CCOCC3)c2)cc1 [Compound 18]              3.9
3  CNc1ccc(-c2cc(N3CCOCC3)cc(S(=O)(=O)[C@@H]3CCOC3)c2)cn1 [Compound 108]             0.69

[1] NCCNc1ncc(-c2cc(N3CCOCC3)cc(S(=O)(=O)Cc3ccc(F)cc3)c2)cn1 [47 (as a HCl salt)]
[2] Nc1ncc(-c2cc(N3CCOCC3)cc(S(=O)(=O)CC3CCOC3)c2)cn1 (centres unmarked) [Compound 38]
[3] Nc1ncc(-c2cc(S(=O)(=O)[C@@H]3CCOC3)cc(N3CCOCC3)n2)cn1 [Compound 142b]
[4] O=S(=O)(c1ccccc1)c1cc(-c2cnc(NC3CC3)nc2)cc(N2CCOCC2)c1 [Compound 20]
[5] Nc1ncc(-c2cc(C3(c4ccccc4)CC3)cc(N3CCOCC3)n2)cn1 [Compound 127]
Ask | # sort list by recorded PI3Ka IC50, greatest to least Reply with the item labels sorted in the order that was asked for.
Reply | 4, 1, 2, 5, 3
